- ASSAYED_SYSTEM: Cytochrome P450 3A4 (Homo sapiens, UniProt P08684)
- Sequence (P08684 whole entry): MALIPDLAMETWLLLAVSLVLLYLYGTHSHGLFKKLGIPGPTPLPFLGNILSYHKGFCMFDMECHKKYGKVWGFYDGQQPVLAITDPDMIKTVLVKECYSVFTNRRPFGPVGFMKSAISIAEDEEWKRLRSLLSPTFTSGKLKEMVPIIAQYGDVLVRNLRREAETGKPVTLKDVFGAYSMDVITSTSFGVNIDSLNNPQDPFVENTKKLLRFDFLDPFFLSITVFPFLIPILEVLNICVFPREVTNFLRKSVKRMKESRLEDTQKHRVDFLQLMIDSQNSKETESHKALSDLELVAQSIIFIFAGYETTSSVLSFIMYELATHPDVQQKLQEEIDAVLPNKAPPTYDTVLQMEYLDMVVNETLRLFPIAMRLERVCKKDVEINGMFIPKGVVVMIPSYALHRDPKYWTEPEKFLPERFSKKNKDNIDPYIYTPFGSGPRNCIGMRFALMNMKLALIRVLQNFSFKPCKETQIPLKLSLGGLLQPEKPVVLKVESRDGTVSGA
- EXPERIMENT_SUMMARY: Inhibition of CYP3A4 (unknown origin) using testosterone as substrate
- Format: ADME
PARAMETER: IC50

> print(dat)
                                   molecule  measured.result
1  CC(C)(NC(=O)c1cc(F)cc2cc(-c3ccc(Cl)cc3)oc12)C(=O)O          > 30 µM
2  CCC(C)(NC(=O)c1cc(F)cc2cc(-c3ccc(Cl)cc3)oc12)C(=O)O (configuration not stated)          > 30 µM

* * *

Readings of microsomal CLint for the listed molecules
- EXPERIMENT_SUMMARY: Microsomal stability in rat liver microsomes assessed as intrinsic clearance
- Type: ADME, Microsome
- STATED_CONDITIONS: read-out: CLH
PARAMETER: microsomal CLint (µL/min/mg)

> print(dat)
                                   molecule         parameter  value.modifier  measured.result
1  CC(C)(NC(=O)c1cc(F)cc2cc(-c3ccc(Cl)cc3)oc12)C(=O)O  microsomal CLint               =               25
2  CCC(C)(NC(=O)c1cc(F)cc2cc(-c3ccc(Cl)cc3)oc12)C(=O)O (configuration not stated)  microsomal CLint               <               20

* * *

- ASSAYED_SYSTEM: Endoplasmic reticulum aminopeptidase 1 (Homo sapiens)
- Sequence (Q9NZ08 whole entry): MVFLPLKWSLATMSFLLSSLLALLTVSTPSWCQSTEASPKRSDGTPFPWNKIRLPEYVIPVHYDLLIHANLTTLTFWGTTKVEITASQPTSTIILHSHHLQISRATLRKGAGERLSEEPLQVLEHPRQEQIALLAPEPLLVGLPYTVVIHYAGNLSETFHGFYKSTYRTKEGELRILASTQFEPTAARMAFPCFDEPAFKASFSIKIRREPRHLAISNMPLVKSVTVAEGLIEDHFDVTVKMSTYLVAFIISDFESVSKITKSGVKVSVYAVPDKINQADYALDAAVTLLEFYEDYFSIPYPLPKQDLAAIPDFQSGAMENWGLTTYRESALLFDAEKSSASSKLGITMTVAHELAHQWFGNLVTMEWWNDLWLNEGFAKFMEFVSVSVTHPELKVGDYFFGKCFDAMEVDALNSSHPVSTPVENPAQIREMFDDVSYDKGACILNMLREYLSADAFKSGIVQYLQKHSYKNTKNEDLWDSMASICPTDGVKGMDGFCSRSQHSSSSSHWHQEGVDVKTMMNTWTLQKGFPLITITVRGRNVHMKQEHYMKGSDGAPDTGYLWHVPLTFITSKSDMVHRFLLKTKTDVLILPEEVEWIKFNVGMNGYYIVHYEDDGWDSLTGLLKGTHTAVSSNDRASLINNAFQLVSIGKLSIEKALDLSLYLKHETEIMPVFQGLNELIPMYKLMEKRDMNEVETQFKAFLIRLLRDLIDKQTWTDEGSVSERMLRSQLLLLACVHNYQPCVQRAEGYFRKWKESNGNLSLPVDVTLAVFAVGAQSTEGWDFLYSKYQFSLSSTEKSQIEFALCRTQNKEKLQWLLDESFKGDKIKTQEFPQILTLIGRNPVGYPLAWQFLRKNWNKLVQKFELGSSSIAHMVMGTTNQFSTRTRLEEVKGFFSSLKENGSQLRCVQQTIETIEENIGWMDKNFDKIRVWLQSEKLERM
Label condition met when IC50 < 300 nM; otherwise condition not met.

> print(dat)
                                    molecule  qualitative.label
 1  CC(C)(NC(=O)c1cccc2c(Br)c(-c3ccc(Cl)cc3)oc12)C(=O)O  condition not met
 2  O=C(N[C@H](Cc1ccccc1)C(=O)O)c1cc(F)cc2cc(-c3ccc(Cl)cc3)oc12      condition met
 3  O=C(NC1(C(=O)O)CCCCC1)c1cccc2cc(-c3ccc(Cl)cc3)oc12      condition met
 4  CC(C)(NC(=O)c1cc(F)cc2cc(-c3ccc(Cl)cc3)oc12)c1nnn[nH]1      condition met
 5  O=C(N[C@@H](Cc1ccccc1)C(=O)O)c1cc(F)cc2cc(-c3ccc(Cl)cc3)oc12  condition not met
 6  O=C(NC1(C(=O)O)CCCC1)c1cc(F)cc2cc(-c3ccc(Cl)cc3)oc12      condition met
 7  COC(=O)C(C)(C)NC(=O)c1cc(F)cc2cc(-c3ccc(Cl)cc3)oc12  condition not met
 8  CCC(C)(NC(=O)c1cc(F)cc2cc(-c3ccc(C(F)(F)F)cc3)oc12)C(=O)O (stereo unspecified)  condition not met
 9  O=C(NC1(C(=O)O)CCCCC1)c1cc(F)cc2cc(-c3ccc(Cl)cc3)oc12      condition met
10  CN(C(=O)c1cc(F)cc2cc(-c3ccc(Cl)cc3)oc12)C(C)(C)C(=O)O  condition not met
11  CC(C)(NC(=O)c1cc(F)cc2cc(-c3ccc(Cl)cc3)oc12)C(N)=O  condition not met

* * *

// reported pIC50 per item
- ASSAYED_SYSTEM: UniProt P08684
- EXPERIMENT_SUMMARY: Inhibition of CYP3A4 (unknown origin) using midazolam as substrate
- Type: ADME
pIC50: −log10 of the molar value.
PARAMETER: pIC50

> print(dat)
                                   molecule  assayed.system  measured.result
1  CCC(C)(NC(=O)c1cc(F)cc2cc(-c3ccc(Cl)cc3)oc12)C(=O)O (configuration not stated)  UniProt P08684           < 4.52
2  CC(C)(NC(=O)c1cc(F)cc2cc(-c3ccc(Cl)cc3)oc12)C(=O)O  UniProt P08684           < 4.52
